assay: photoluminescence quantum yield (fraction); solvent given as SMILES; conditions: in CC#N
Label 0 if photoluminescence quantum yield falls below 0.009; label 1 in every other case.

Here's what some known entries look like.
Query: Say whether CCOC(=O)c1c2c3c(ccc([N+](=O)[O-])c3c3cc4ccccc4cc13)N(C)C2=O shows photoluminescence quantum yield of 0.009 or more.
Result: 1

Query: Say whether CC1(C)[C@@H]2CC[C@]1(C)c1nc3cc(-c4cccs4)ccc3nc12 shows photoluminescence quantum yield of 0.009 or more.
Result: 1

Query: Say whether COc1ccc(-c2csc(/C(C#N)=C/c3ccc(C#N)cc3)n2)cc1 shows photoluminescence quantum yield of 0.009 or more.
Result: 0

Okay, next one:
Query: Say whether CCOC(=O)/C(C#N)=C/c1cc2c3ccccc3n(C)c2cc1OC shows photoluminescence quantum yield of 0.009 or more.
Result: 0

* * *

Exercise: state measured photoluminescence quantum yield for each of the molecules provided.
assay: photoluminescence quantum yield (fraction); solvent given as SMILES; settings: in C1CCCCC1
Numbers only.

Please review the entries below; each comes with its answer.
Query: Give photoluminescence quantum yield for CCC(C)(C)c1ccc2c(c1)C(CC)(CC)c1cc(-c3ccc4c(c3)C(CC)(CC)c3cc(C(C)(C)CC)ccc3-4)ccc1-2
Result: 0.85

Query: Give photoluminescence quantum yield for Cc1cc(C)c(B2c3cc(C(C)(C)C)cc4ccc5c6ccccc6c6cc(C(C)(C)C)cc2c6c5c34)c(C)c1
Result: 0.72

Query: Give photoluminescence quantum yield for Cc1ccc(/C=C/c2ccccc2-[n+]2cc([O-])on2)cc1
Result: 0.0007

Query: Give photoluminescence quantum yield for Cc1cccc2ccccc12
Result: 0.4

Query: Give photoluminescence quantum yield for CCCCCCOc1ccc(C#Cc2ccc(-c3ccc(-c4ccc(C#Cc5ccc(OCCCCCC)c(OCCCCCC)c5)s4)c4nsnc34)s2)cc1OCCCCCC
Result: 0.54

Provide each entry's photoluminescence quantum yield from the list below.
1. c1ccc(N2c3ccc4ccccc4c3-c3c4ccccc4nc[n+]3[B-]2(c2ccccc2)c2ccccc2)cc1
2. CCC(C)(C)c1ccc2c(c1)C(CCOC)(CCOC)c1cc(-c3ccc4c(c3)C(CCOC)(CCOC)c3cc(C(C)(C)CC)ccc3-4)ccc1-2
3. COc1ccc(C2=C3C(C)=CC(C)=[N+]3[B-](F)(F)n3c(/C=C/c4ccc(N(C)C)cc4)cc(C)c32)cc1
4. COc1cccc(C2=CC3=C(c4c(C)cc(C)cc4C)c4cc(-c5cccc(OC)c5)c(-c5cccc(OC)c5)n4[B-](F)(F)[N+]3=C2c2cccc(OC)c2)c1
5. CN(C)c1ccc(/C=C/c2ccc([N+](=O)[O-])c(O)c2)cc1
6. CN(C)CCNCc1c2ccccc2cc2ccccc12
7. Cc1ccc(/C=C/c2ccccc2-[n+]2noc([O-])c2-c2ccccc2)cc1

Result:
0.06
0.61
0.97
0.86
0.11
0.0769
0.0018

Provide each entry's photoluminescence quantum yield from the list below.
1. CC1=C(C(C)(C)C)C(C)=[N+]2C1=C(C)c1c(C)c(C(C)(C)C)c(C)n1[B-]2(F)F
2. Cc1cc(C)c(B2c3cc(C(C)(C)C)cc4ccc5ccc6cc(C(C)(C)C)cc2c6c5c34)c(C)c1
3. COc1ccc(C2=C(c3ccc(OC)cc3)C(C)(C)c3sccc32)cc1

Result:
[0.32, 0.79, 0.02]

Provide each entry's photoluminescence quantum yield from the list below.
1. N#Cc1cc(C#N)c(-c2cc(-n3c4ccccc4c4ccccc43)cc(-n3c4ccccc4c4ccccc43)c2)cc1-c1cc(-n2c3ccccc3c3ccccc32)cc(-n2c3ccccc3c3ccccc32)c1
2. CCCCc1cc2cccc[n+]2[b-]2c(-c3cccc4[b-]3[n+]3ccccc3cc4CCCC)cccc21
3. Cc1ccc2ccccc2c1
4. CC(C)[Si]1(C(C)C)c2cc(C=C(C#N)C#N)ccc2-c2ccc(N(C)C)cc21
5. c1cc2c3c(c1)OCCCCCCCOc1cccc(c1-c1c4ccccc4c-3c3ccccc13)OCCCCCCCO2
6. C(#Cc1cccc2cc(-c3ccccc3)c3cc(-c4cc[b-]5c(c4)c(-c4ccccc4)cc4cccc(C#Cc6ccccc6)[n+]54)cc[b-]3[n+]12)c1ccccc1

Result:
[0.11, 0.03, 0.52, 0.08, 0.98, 0.02]

* * *

test: photoluminescence quantum yield (fraction); solvent given as SMILES; details: in O
Exercise: state measured photoluminescence quantum yield for each of the compounds provided.

Please review the entries below; each comes with its answer.
Query: Give photoluminescence quantum yield for CC/[NH+]=c1\cc2oc3cc(NCCC(=O)NCC(=O)OC)c4ccccc4c3nc-2cc1C
Result: 0.45

Query: Give photoluminescence quantum yield for CC[N+]1(CC)CN2C(=N1)C(C(=O)O)=Cc1ccccc12
Result: 0.531

Query: Give photoluminescence quantum yield for O=C(O)c1ccccc1
Result: 0.001

Query: Give photoluminescence quantum yield for CCN(CC)c1ccc2c(C)cc(=O)oc2c1
Result: 0.041

Query: Give photoluminescence quantum yield for Cc1cn(CCCn2cc(C)c(=O)[nH]c2=O)c(=O)nc1-n1cncn1
Result: 0.016

Provide each entry's photoluminescence quantum yield from the list below.
1. CC1(C)C2=[N+](CCCCCC(=O)NCCNC(=O)CCCCCN3/C(=C/C=C/C=C/C=C/2)C(C)(C)c2cc(S(=O)(=O)[O-])ccc23)c2ccc(S(=O)(=O)[O-])cc21
2. C=CC1CN2CCC1CC2[C@H](O)c1ccnc2ccc(OC)cc12 (some centres not stated)

Result:
1. 0.33
2. 0.546

* * *

assay: photoluminescence quantum yield (fraction); solvent given as SMILES; conditions: in ClC(Cl)Cl
Exercise: state measured photoluminescence quantum yield for each of the compounds provided.
Give bare numbers.

Please review the entries below; each comes with its answer.
Query: Give photoluminescence quantum yield for O=Cc1ccc(C#CC(C#Cc2ccc(C=O)o2)=Cc2ccc(C=C(C#Cc3ccc(C=O)o3)C#Cc3ccc(C=O)o3)s2)o1
Result: 0.01

Query: Give photoluminescence quantum yield for F[B-]1(F)OC(c2ccccc2)=Cc2c3ccccc3cc[n+]21
Result: 0.046

Query: Give photoluminescence quantum yield for COc1ccc2c(C#N)cc3ccc4cc(C#N)c5ccc(OC)cc5c4c3c2c1
Result: 0.1

Please turn your attention to the following entry.
Query: Give photoluminescence quantum yield for CCCCOc1ccc(-c2oc3cc4n(c3c2-c2ccc(OCCCC)cc2)[B-](F)(F)[N+]2=Cc3cc5oc(-c6ccc(OCCCC)cc6)c(-c6ccc(OCCCC)cc6)c5n3[B-](F)(F)[N+]2=C4)cc1
Result: 0.43

* * *

assay: photoluminescence quantum yield (fraction); solvent given as SMILES; conditions: in CC#N
Criterion: photoluminescence quantum yield strictly less than 0.6. Met: y. Not met: n.

Query: Strictly below 0.6 in photoluminescence quantum yield? N#Cc1ccc(-n2nc(C#N)c(N3CCCC3)n2)cc1
Result: y

New cases:
Query: Strictly below 0.6 in photoluminescence quantum yield? Cc1cc(C)c(C2=C3C=C(c4ccc(C(C)(C)C)cc4)C(c4ccc(C(C)(C)C)cc4)=[N+]3[B-](F)(F)n3c2cc(-c2ccc(C(C)(C)C)cc2)c3-c2ccc(C(C)(C)C)cc2)c(C)c1
Result: n

Query: Strictly below 0.6 in photoluminescence quantum yield? COC(=O)C(NC(=O)OC(C)(C)C)c1ccc2oc(-c3ccc(OC(=O)c4ccccc4)cc3O)nc2c1 (centres undefined)
Result: y

Query: Strictly below 0.6 in photoluminescence quantum yield? CCCCCCCCN1c2ccc(C#Cc3ccc(C(F)(F)F)cc3)cc2Sc2cc(C=O)ccc21
Result: n

Query: Strictly below 0.6 in photoluminescence quantum yield? COC(=O)[C@@]12N=N[C@@H](C3C[C@H]31)[C@@H]1C[C@@H]12 (some centres undefined)
Result: y

Query: Strictly below 0.6 in photoluminescence quantum yield? Cn1cccc1-c1ccc(C#N)cc1
Result: y

Query: Strictly below 0.6 in photoluminescence quantum yield? COc1cc2c(cc1/C=C/C(=C(C#N)C#N)c1ccccc1)c1ccccc1n2C
Result: y

Query: Strictly below 0.6 in photoluminescence quantum yield? CCN(CC)c1ccc2c(-c3ccc(S(=O)(=O)O)cc3S(=O)(=O)[O-])c3ccc(=[N+](CC)CC)cc-3oc2c1
Result: y

* * *

test: photoluminescence quantum yield (fraction); solvent given as SMILES; conditions: in OC1CCCCC1
READOUT KIND: photoluminescence quantum yield

Please review the entries below; each comes with its answer.
Query: Give photoluminescence quantum yield for Cn1cc(/C=C/C(=O)c2ccccc2)c2ccccc21
Result: 0.778

Query: Give photoluminescence quantum yield for COC(=O)C(Cc1ccc2oc(-c3ccc(N(C)C)cc3)nc2c1)NC(=O)OC(C)(C)C (centres undefined)
Result: 0.91

Query: Give photoluminescence quantum yield for CN(C)c1ccc2c(c1)Cc1ccccc1-2
Result: 0.22

Please turn your attention to the following entry.
Query: Give photoluminescence quantum yield for COC(=O)C(Cc1ccc2oc(-c3ccc(N(C)c4ccccc4)cc3)nc2c1)NC(=O)OC(C)(C)C (centres undefined)
Result: 0.18
